- TEST SYSTEM: T1, GST-MDM2 containing full-length human MDM2 (human, UniProt Q00987 1-491)
- T1 construct: mature; Expressed in E. coli and purified on glutathione-agarose; also called GST-HDM2; not shown: GST tag
- T1 sequence (Q00987 whole entry): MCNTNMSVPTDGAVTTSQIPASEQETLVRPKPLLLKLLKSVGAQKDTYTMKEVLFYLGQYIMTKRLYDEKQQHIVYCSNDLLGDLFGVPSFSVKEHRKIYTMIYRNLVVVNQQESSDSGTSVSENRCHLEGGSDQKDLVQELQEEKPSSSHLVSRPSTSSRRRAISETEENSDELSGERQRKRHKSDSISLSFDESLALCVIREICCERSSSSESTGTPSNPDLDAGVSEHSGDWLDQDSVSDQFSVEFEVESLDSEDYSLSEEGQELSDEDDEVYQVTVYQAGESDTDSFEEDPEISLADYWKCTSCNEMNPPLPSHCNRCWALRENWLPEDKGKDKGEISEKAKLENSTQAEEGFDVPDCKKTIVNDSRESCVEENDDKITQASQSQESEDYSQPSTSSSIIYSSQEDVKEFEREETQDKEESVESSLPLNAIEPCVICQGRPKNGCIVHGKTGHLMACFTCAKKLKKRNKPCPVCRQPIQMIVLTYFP
- ASSAY TEXT: competition ELISA: peptide + GST-MDM2 on plated His6-p53
Bridges are numbered along the chain shown (N, C = ends). L3 = not defined here
METRIC: IC50 (nM)
Response body: numeric value in nM, unit text excluded.

response.value for Ac-TSFXQYWNLLXP-NH2 (bridge 4-11 via L3; not fully specified (residues 4, 11); printed as TSFαQYWNLLβP; also: pyrazoline cross-linker L3 between α and β, Stapled peptide) [sPMI-3] (field: IC50) = 23

response.value for Ac-LTFXHYWXRLTS-NH2 (bridge 4-8 via L3; not fully specified (residues 4, 8); printed as LTFαHYWβRLTS, Stapled peptide) [sPDI-8] (field: IC50) = 55

response.value for Ac-LTFXHYWXRLRS-NH2 (bridge 4-8 via L3; not fully specified (residues 4, 8); printed as LTFαHYWβRLRS, Stapled peptide) [sPDI-9] (field: IC50) = 179

response.value for Ac-TSFXRYWXRLSP-NH2 (bridge 4-8 via L3; not fully specified (residues 4, 8); printed as TSFαRYWβRLSP; also: pyrazoline cross-linker L3 between α and β, Stapled peptide) [sPMI-4] (field: IC50) = 1230
